pIC50: −log10 of the molar value.
Please find below pIC50 measurements for Serine/threonine-protein kinase mTOR (Homo sapiens), combined from several publications.
measure name: pIC50

>>> result("C[C@@H]1CN(c2nc3c(N4CCOCC4)nc(-c4cnc(N)nc4)nc3n2CC2CC2)CCN1C(=O)[C@@H](C)O")
"7.52 to 8.00"
>>> result("Cc1nn(C)cc1-n1c(=O)n(C)c2cnc3ccc(-c4cnc5[nH]ccc5c4)cc3c21")
"> 8.52"
>>> result("CC(C)(Cc1ccccc1C1CCNCC1)Nc1nc(N2CCOCC2)nc(-n2c(C(F)F)nc3ccccc32)n1")
"< 6.30"
>>> result("C[C@H](O)C(=O)N1CCN(c2nc3c(N4CCOCC4)nc(-c4cnc(N)nc4)nc3n2CC(F)(F)F)C[C@@H]1C")
"> 8.00"

---

// cross-study collection: IC50 for Serine/threonine-protein kinase mTOR (Homo sapiens, UniProt P42345)
measure name: IC50

>>> result("COc1ncc(-c2ccc3ncc4nnc(CN(C)C)n4c3c2)cc1NS(=O)(=O)c1ccc(F)cc1F")
"< 100 nM"
>>> result("Cn1cc(-c2cc(-c3cnc4[nH]ccc4c3)ccn2)n(-c2ccc(CC#N)cc2)c1=O")
"0.1 to 100 nM"
>>> result("Cc1nc2cnc3ccc(-c4cnc(N)c(C(F)(F)F)c4)nc3c2n1C1CCN(C(=O)C2CC2)CC1")
"< 100 nM"
>>> result("Cc1nc(N)ncc1-c1nc(N2CCOCC2)c2nc(N3CCN(S(C)(=O)=O)CC3)n(CC3CC3)c2n1")
"100 to 500 nM"
>>> result("CCN1CCN(c2ccc(-n3c(-c4cc(-c5cnc6[nH]ccc6c5)ccn4)cn(C)c3=O)cc2C(F)(F)F)CC1")
"> 10000 nM"
>>> result("CC(C)(O)c1ccc(-c2cnc3[nH]c(=O)n(CC4CCOCC4)c3n2)cn1")
"176 nM"
>>> result("CC(C)n1c(=O)n(C)c2nnc3cc(F)c(-c4ccc(COCCN5CCCC5)nc4)cc3c21")
"> 10000 nM"
>>> result("c1nc2cc(-c3nc(N4CCOCC4)nc4c3ncn4CC3CC3)ccc2[nH]1")
"1000 to 5000 nM"

---

// merged dataset of pIC50 values, system = Serine/threonine-protein kinase mTOR (Homo sapiens), multiple refs
pIC50: −log10 of the molar value.
measure name: pIC50

>>> result("O=c1ccc2cnc3ccc(-c4ccc(-n5cccn5)nc4)nc3c2n1-c1cccc(C(F)(F)F)c1")
8.22
>>> result("Cc1ccc(-c2ccc3c(N4CCOCC4)nc(-c4ccc(NC(=O)Nc5ccc(C(=O)N(C)C)nc5)c(F)c4)nc3c2)o1")
"6.70 to 7.30"
>>> result("Oc1cccc(-c2nc(N3CCOCC3)nc3c2ncn3CC2CCCCC2)c1")
"> 6.00"
>>> result("Cn1nccc1-c1ccccc1CC(C)(C)Nc1nc(N2CCOCC2)nc(-n2c(C(F)F)nc3ccccc32)n1")
"< 6.30"
>>> result("Nc1cc(C(F)(F)F)c(-c2cc(N3CCOCC3)cc(S(=O)(=O)Cc3ccccc3)c2)cn1")
"< 4.48"
>>> result("CC(c1ccccc1)n1cnc2c(-c3cccc(O)c3)nc(N3CCOCC3)nc21 (centres unmarked)")
"> 6.00"
>>> result("Cc1nc2[nH]c(=O)n(CC3CCOCC3)c2cc1-c1cnc2[nH]ccc2c1")
"> 7.30"
>>> result("Oc1cccc(-c2nc(N3CCOCC3)nc3c2ncn3C2CCCC2)c1")
"> 6.00"

---

Literature compilation of IC50 measurements on Serine/threonine-protein kinase mTOR (Homo sapiens).
measure name: IC50

>>> result("Cn1ccc(-c2ccc(-c3cnn4c5c(c(C6CC7CCC(C6)N7C(=O)c6nnc[nH]6)nc34)C(=O)CCN5)cn2)n1 (stereo not shown)")
"< 10 nM"
>>> result("CC(=O)NCc1cncc(-c2ccc3ncc4c(c3c2)n(-c2cn(C)nc2C)c(=O)n4C)c1")
"542 nM"
>>> result("Cc1nc2[nH]c(=O)n(CC3CCOCC3)c2cc1-c1ccc2[nH]ccc2c1")
"< 50 nM"
>>> result("Cn1cc(-c2cc(-c3cnc4[nH]ncc4c3)ccn2)n(-c2ccc(C(C)(C)C#N)cc2)c1=O")
"100 to 10000 nM"

---

The entries that follow carry IC50 values tested on Serine/threonine-protein kinase mTOR (Homo sapiens), drawn from several published reports.
measure name: IC50

>>> result("CS(=O)(=O)N1CCC(c2nc3c(-c4ccc(-c5ccccc5)nc4)cnn3c3[nH]ccc23)C1 (centres unmarked)")
"1 to 10 nM"
>>> result("CCNc1ccc(-c2nc(N3CCOCC3)c3nc(-c4cccc(NS(=O)(=O)CCCF)c4F)ccc3n2)cn1")
"1 to 100 nM"
>>> result("CN(C)c1ccc(-c2ccc3ncc4c(c3c2)n(-c2cn(C)nc2Cl)c(=O)n4C)cn1")
"11 nM"
>>> result("O=c1[nH]c2ncc(-c3cnc4cc[nH]c4c3)cc2n1CC1CCOCC1")
"100 to 5000 nM"
>>> result("COc1ccccc1-n1c(=O)[nH]c2c(C(N)=O)nc(C3CCN(Cc4ccccc4)CC3)nc21")
"> 30000 nM"
>>> result("Cc1nc(N)ncc1-c1nc(N2CCOCC2)c2nc(N3CC[C@@H](NS(C)(=O)=O)C3)n(CC3CC3)c2n1")
"≥ 500 nM"
>>> result("Cc1nn(C)cc1-n1c(=O)n(C)c2cnc3ccc(-c4cncc(N(C)C(C)C)c4)cc3c21")
"4 nM"
>>> result("O=C(NCCO)Nc1ccc(-c2nc3c(c(N4CC5CCC(C4)O5)n2)CS(=O)(=O)C3)cc1")
"< 100 nM"

---

// note: IC50 values for Serine/threonine-protein kinase mTOR (Homo sapiens, UniProt P42345) were reported in different studies
measure name: IC50

>>> result("COc1cc(-c2c(F)ccc(NS(=O)(=O)CCCF)c2F)cc2c(N3CCOCC3)nc(-c3ccc(N)nc3)nc12")
"1 to 100 nM"
>>> result("O=S(=O)(CCCF)Nc1cccc(-c2ccc3nc(-c4ccc(NCCO)nc4)nc(N4CCOCC4)c3n2)c1F")
"1 to 100 nM"
>>> result("COc1ccccc1-n1c(=O)[nH]c2c(C(N)=O)nc(-c3ccnc(O)c3)nc21")
"> 30000 nM"
>>> result("CN(C)C(=O)c1ccc(NC(=O)Nc2ccc(-c3nc(N4CCOCC4)c4ncc(-c5cccc(S(C)(=O)=O)c5)cc4n3)cc2F)cc1")
"< 50 nM"

---

The entries that follow carry pIC50 values tested on Serine/threonine-protein kinase mTOR (Homo sapiens, UniProt P42345), drawn from several published reports.
pIC50: −log10 of the molar value.
measure name: pIC50

>>> result("CC(=O)Nc1ccc(Cn2cnc3c(-c4cccc(O)c4)nc(N4CCOCC4)nc32)cc1")
"5.30 to 6.00"
>>> result("COc1cc(-c2cccc(NS(=O)(=O)C(C)C)c2F)cc2c(N3CCOCC3)nc(-c3ccc(N)nc3)nc12")
"6.00 to 7.00"
>>> result("CO[C@H]1CC[C@@H](Cn2c(=O)[nH]c3ncc(-c4cnc5[nH]ccc5c4)cc32)CC1")
"> 7.30"
>>> result("CN(C)C1CCN(C(=O)c2ccc(NC(=O)Nc3ccc(-c4nc(N5CCOCC5)c5ccc(C(C)(C)O)cc5n4)cc3)cc2)C1 (stereo in doubt)")
"> 7.30"
>>> result("CC(=O)NC1CCN(Cc2ccc3c(N4CCOCC4)nc(-c4cnc(N)nc4)nc3c2)CC1")
"5.00 to 6.70"
>>> result("Cc1nn(C)cc1-n1c(=O)n(C)c2cnc3ccc(-c4cnc(N)c(C(F)(F)F)c4)cc3c21")
8.05
>>> result("CC(O)C(=O)Nc1cccc(-c2cnc3c(N4CCOCC4)nc(-c4cnc(N)nc4)nc3c2)c1 (stereo not shown)")
"> 7.30"

---

// cross-source set; read-out = pIC50; system = Serine/threonine-protein kinase mTOR (Homo sapiens, UniProt P42345)
pIC50: −log10 of the molar value.
measure name: pIC50

>>> result("COc1ccccc1-n1c(=O)[nH]c2c(C(N)=O)nc(-c3cccc(OC(F)(F)F)c3)nc21")
"< 4.52"
>>> result("Cc1n[nH]c2c1c(CC1CCC(C)(C(=O)O)CC1)nc1c(-c3ccc(-c4cccnc4)nc3)cnn12 (stereo not drawn)")
"8.00 to 9.00"
>>> result("Cc1nn(C)cc1-n1c(=O)n(C)c2cnc3ccc(-c4cnc5c(c4)ncn5C)cc3c21")
7.52

---

Compiled pIC50 measurements on Serine/threonine-protein kinase mTOR (Homo sapiens) taken from the literature.
pIC50: −log10 of the molar value.
measure name: pIC50

>>> result("CCn1cc(-n2c(=O)n(C)c3cnc4ccc(-c5cncc(OC(C)C)c5)cc4c32)c(C)n1")
7.51
>>> result("CNc1cc(-c2ccc3ncc4c(c3c2)n(-c2cn(C)nc2C)c(=O)n4C)cnc1CO")
8.40
>>> result("Cn1cc(-c2cc(-c3cnc4ccccc4c3)ccn2)n(-c2ccc(C(C)(C)C(N)=O)cc2)c1=O")
"5.00 to 7.00"
>>> result("CCNC(=O)Nc1ccc(-c2nc3c(c(N4CCOC[C@@H]4C)n2)C(C)S(=O)(=O)C3)cc1F (stereo partly drawn)")
"> 7.00"
>>> result("CC(c1ccccc1)n1c(=O)[nH]c2ncc(-c3ccc(S(C)(=O)=O)cc3)nc21 (stereo not drawn)")
"5.00 to 5.29"
>>> result("CNc1ccc(-c2ccc3ncc4c(c3c2)n(-c2cn(C)nc2Cl)c(=O)n4C)cn1")
"> 8.52"
